Overview of recorded Percent Survival for various compounds
Test system: A549 cells
run_description: MTT assay, percent survival of A549 cells
Format: cell-based
particulars: Table 3; A549; 60 μM
Procedure: 1. Prepare a suspension of A549 cells at 2×10^5 cells per mL in supplemented DMEM/F12 growth medium. 2. Plate 2×10^4 cells per well in a 96 well cell culture plate by adding 100 μL of stock suspension to each well. 3. For each platinum compound (already in solution), prepare a readily usable stock solution in DMEM/F12 medium. 4. […] 12. Read the absorbance of each well at […] using Varian software for Cary 50 UV-vis Spectrophotometer with fiber optic probe accessory. […]
assay_metric: Percent Survival

1. Nc1cccc2c(=O)[nH][n]([Pt]([NH2])([NH2])([Cl])([Cl])[N+](=O)[O-])c(=O)c12 | 28.9983%
2. [NH2][Pt]([NH2])([Cl])([Cl])([N+](=O)[O-])[o+]1c2cc(=O)ccc-2c(-c2ccccc2C(=O)O)c2ccc(O)cc21 | 24.9130%
3. [NH2][Pt]([NH2])([Cl])([Cl])([N]1C(=O)CC(C(=O)O)NC1=O)[N+](=O)[O-] (centres unmarked) | 28.9901%
4. N.N.[Cl][Pt][Cl] [Cis-Pt, Cis-diammineoplatinum(II) dichloride, reference compound] | 32.6293%
5. [NH2][Pt]([NH2])([Cl])([Cl])[N+](=O)[O-].c1ccc(-c2oc(-c3ccccc3)c3ccccc23)cc1 | 22.7148%
6. CCN(CC)c1ccc2c(-c3ccccc3C(=O)O)c3ccc(=[N+](CC)CC)cc-3[o+]([Pt]([NH2])([NH2])([Cl])([Cl])[N+](=O)[O-])c2c1.[Cl-] | 26.3867%
7. N[N](c1cc([N+](=O)[O-])cc([N+](=O)[O-])c1)[Pt]([NH2])([NH2])([Cl])([Cl])[N+](=O)[O-] | 26.6241%
8. CC(C)(C(=O)O)C(O)(C(=O)O)C(C)(C)C(=O)[O][Pt]([NH2])([NH2])([Cl])([Cl])[N+](=O)[O-] (centres unmarked) | 24.8352%
